Data provenance is ChEMBL document CHEMBL3507680.

Listing of entries alongside the reported cytotoxicity at 70.5 h.
assay: Human HepG2 cell viability assay in 384 well format; type: toxicity, cell-based; design: dose 125 nL, time 70.5 hour; concentration not given beside the values; settings: HepG2 cells, read-out: Inhibition
Express it in %; write the number only.

| compound | value_kind | measure_unit | measurement |
| --- | --- | --- | --- |
| CC(C)c1cc(C(=O)N2CCCC(Cn3cc(CO)nn3)C2)on1 (stereo not given) | cytotoxicity at 70.5 h | % | -2.32 |
| COCCNC(=O)C(C)n1cc(Br)cn1 (stereo not given) | cytotoxicity at 70.5 h | % | -15.1 |
| Cc1ccc(CN2CCOCC3(C2)CN(c2ccc(C)s2)C(=O)CO3)o1 (stereo not given) | cytotoxicity at 70.5 h | % | 0.222 |

Read the entry "Cn1ccc(CN2CCC(Cc3ccccc3)CC2)cc1=O" and write its reported cytotoxicity at 70.5 h.
0.151

Read the entry O=C(NCC1CCCO1)c1ccc(S(=O)(=O)NCCc2cn[nH]c2)cc1 (stereo not given) and write its reported cytotoxicity at 70.5 h.
-4.87

###

experiment: Human HepG2 cell viability assay in 384 well format; type: toxicity, cell-based; design: dose 125 nL, time 70.5 hour; concentration not given beside the values; settings: HepG2 cells, read-out: Inhibition
value_kind: cytotoxicity at 70.5 h (%)
Express it in %; write the number only.

Read the entry "Cc1ccc(CN2CCn3c(CNS(C)(=O)=O)nnc3C2)s1" and write its reported cytotoxicity at 70.5 h.
22.6

Read the entry "CC(C)=Cc1c(-c2ccccc2)ncn1CCS(C)(=O)=O" and write its reported cytotoxicity at 70.5 h.
7.25

Read the entry O=C1CC(c2ccncc2)C2(CCN(CCO)CC2)N1 (stereo unspecified) and write its reported cytotoxicity at 70.5 h.
-10.4

Read the entry CCc1ccc(S(=O)(=O)N2CCCC3(CCCN3S(C)(=O)=O)C2)cc1 (stereo unspecified) and write its reported cytotoxicity at 70.5 h.
22.3

Read the entry "Cc1cc(C)nc(N2CCc3ccc(OC(F)F)cc3C2)n1" and write its reported cytotoxicity at 70.5 h.
-2.64

Read the entry O=C(NCCCN1CCOCC1)C1CCCN(Cc2ccco2)C1 (stereo unspecified) and write its reported cytotoxicity at 70.5 h.
-1.31

Read the entry "Cc1ccc2c(n1)N(CC1CC1)CCN(C(=O)NC1CC1)C2" and write its reported cytotoxicity at 70.5 h.
-7.71

Read the entry c1ncn(CC2CN(Cc3nc(-c4ccsc4)no3)CCO2)n1 (stereo unspecified) and write its reported cytotoxicity at 70.5 h.
-6.98

###

assay: Human HepG2 cell viability assay in 384 well format; assay type: toxicity, cell-based; design: dose 125 nL, time 70.5 hour; concentration not given beside the values; settings: HepG2 cells, read-out: Inhibition
value_kind: cytotoxicity at 70.5 h (%)
Express it in %; write the number only.

See these solved cases before continuing.
| compound | cytotoxicity at 70.5 h, % |
| --- | --- |
| Cc1cc(F)ccc1S(=O)(=O)NCC(O)c1cccn1C (centres undefined) | 0.803 |
| CC(NC(=O)CN(C)C(C)C)c1ccc(Oc2cccnc2)c(F)c1 (centres undefined) | -4.91 |
| CN1CC(c2ccccc2)CC2(CCN(C(=O)c3ccccc3)CC2)C1 (centres undefined) | -5.15 |
| O=C(c1ccco1)N1CC[C@H]2[C@H]1CCN2S(=O)(=O)C1CC1 | -8.4 |
| O=C1CC(N2CCN(c3ccc(O)cc3)CC2)C(=O)N1Cc1cccs1 (centres undefined) | -7.69 |
| O=C1CN(c2ccc(CNC(=O)NCC3CCOC3)cc2)CCN1 (centres undefined) | -5.59 |
| Cc1n[nH]c(SCC(=O)NC(c2ccccn2)C(C)C)n1 (centres undefined) | -0.841 |
| CCc1nccn1C1CCCN(C(=O)c2cnc3onc(C)c3c2)C1 (centres undefined) | -2.35 |
| CC(C)CN1CCC(C(=O)NCCNC(=O)c2ccoc2)CC1 | -1.22 |
| Cc1cc(N2CCC(N(C)C(=O)Nc3ccccc3)CC2)nc(C)n1 | 2.35 |

Proceed to the following item.
Read the entry "Cc1ccc(CNc2ccn(CCC(N)=O)n2)c(Br)c1" and write its reported cytotoxicity at 70.5 h.
8.15
